# Tgt: KIT (human)
# Assay explanation: radiometric filter-binding kinase assay, Kinase HotSpot
# Stated conditions: compound 0.5 µM; ATP 10 µM
Decision: residual activity beneath 80% gives satisfied; residual activity meeting or exceeding 80% gives not satisfied.

Worked cases, answers included:
NC(=O)c1cccc(-c2cc(Nc3ccc(OC(F)(F)F)cc3)ncn2)c1	not satisfied
CN(C)c1ccc(/C=C2\C(=O)Nc3ccccc32)cc1	satisfied
O=C(c1cc2cc(O)ccc2[nH]1)c1cc2cc(O)ccc2[nH]1	satisfied
COc1cc2ncnc(Nc3ccc(Oc4ccccc4)cc3)c2cc1OC	satisfied
CN(C)S(=O)(=O)c1ccc2c(c1)/C(=C/c1cc3c([nH]1)CCCC3)C(=O)N2	satisfied

Determine if O=C1c2ccccc2-c2nc3nnnn3nc21 shows residual activity strictly lower than 80%.
satisfied

Another compound to check: COc1ccc(S(=O)(=O)N(CCO)c2ccccc2CN(C)C/C=C/c2ccc(Cl)cc2)cc1
not satisfied

Another compound to check: O=C1C(Cl)=C(N2C(=O)CCC2=O)C(=O)c2ccccc21
not satisfied

Another compound to check: CCCCc1c(-c2ccc(OC)cc2)[nH]c2nccnc12
not satisfied
